Biological target: T1, Human CD137 shuffle 3 (amino acids 115-138 replaced by wild boar CD137) (human, amino acids 115-138 from wild …, UniProt Q07011 24-255)
T1 construct: also called shuffle construct 3
T1 chain: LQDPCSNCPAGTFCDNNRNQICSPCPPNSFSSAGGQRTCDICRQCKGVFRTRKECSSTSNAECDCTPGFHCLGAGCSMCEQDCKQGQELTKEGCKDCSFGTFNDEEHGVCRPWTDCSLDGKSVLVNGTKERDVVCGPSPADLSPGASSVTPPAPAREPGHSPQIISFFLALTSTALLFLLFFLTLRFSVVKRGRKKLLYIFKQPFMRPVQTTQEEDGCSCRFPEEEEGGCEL
Test: flow cytometry on transfected HEK293T-17 cells, 1 µg/mL antibody
Measured Endpoint: binding result

[[record]]
binder = "CD137 antibody clone 009 (rabbit) (antibody, human IgG1, kappa, V domains shown, also called Clone 9; CD137 clone 009) VH: QSLEESGGRLVTPGTPLTLTCTVSGFSLNDYWMSWVRQAPGKGLEWIGYIDVGGSLYYASWAKGRFTISRTSTTVDLKMTSLTTEDTATYFCARGGLTYGFDLWGPGTLVTVSS VL: DIVMTQTPASVSEPVGGTVTINCQASEDISSYLAWYQQKPGQRPKRLIYGASDLASGVPSRFSASGSGTEYALTISDLESADAATYYCHYYATISGLGVAFGGGTEVVVKR"
result = "binds"

[[record]]
binder = "CD137 antibody clone 008 (rabbit) (antibody, human IgG1, kappa, V domains shown, also called Clone 8; CD137 clone 008) VH: QSLEESGGRLVTPGTPLTLTCTASGFSLSSYDMSWVRQAPGKGLEYIGYISSSGNTYYASWAKSRFTISKTSTTVDLKITSPTTEDTATYFCAREGDYWDFNLWGPGTLVTVSS VL: AQVLTQTPSSVSAAVGGTVTINCQASQSISNLLAWYQQKPGQRPRLLIYRASTLASGVPSRFKGSGSGTEFTLTISDLESEDAATYYCAGGFPGLDTGATFGGGTEAVVTR"
result = "binds"

[[record]]
binder = "CD137 antibody clone 001 (rabbit) (antibody, human IgG1, kappa, V domains shown, also called Clone 1; CD137 clone 001) VH: QSVEESGGRLVTPGTPLTLTCTVSGFSLSSYAVSWVRQAPGKGLEWIGVIWNNGATHYATWAKGRFTISKASTTVDLKVTSPTTEDTATYFCARSANDAWSTYSDLWGQGTLVTVSS VL: DIVMTQTPASVEAAVGGTVTIKCQASQTITNYLSWYQQKPGQPPKLLIYKASTLTSGVSSRFKGSGSGTEFTLTISDLESDDAATYYCQNYYYGSSSGYGFVFGGGTEVVVKR"
result = "binds"

